Biological target: Histone acetyltransferase p300 (Homo sapiens, UniProt Q09472)
Sequence (Q09472 whole entry): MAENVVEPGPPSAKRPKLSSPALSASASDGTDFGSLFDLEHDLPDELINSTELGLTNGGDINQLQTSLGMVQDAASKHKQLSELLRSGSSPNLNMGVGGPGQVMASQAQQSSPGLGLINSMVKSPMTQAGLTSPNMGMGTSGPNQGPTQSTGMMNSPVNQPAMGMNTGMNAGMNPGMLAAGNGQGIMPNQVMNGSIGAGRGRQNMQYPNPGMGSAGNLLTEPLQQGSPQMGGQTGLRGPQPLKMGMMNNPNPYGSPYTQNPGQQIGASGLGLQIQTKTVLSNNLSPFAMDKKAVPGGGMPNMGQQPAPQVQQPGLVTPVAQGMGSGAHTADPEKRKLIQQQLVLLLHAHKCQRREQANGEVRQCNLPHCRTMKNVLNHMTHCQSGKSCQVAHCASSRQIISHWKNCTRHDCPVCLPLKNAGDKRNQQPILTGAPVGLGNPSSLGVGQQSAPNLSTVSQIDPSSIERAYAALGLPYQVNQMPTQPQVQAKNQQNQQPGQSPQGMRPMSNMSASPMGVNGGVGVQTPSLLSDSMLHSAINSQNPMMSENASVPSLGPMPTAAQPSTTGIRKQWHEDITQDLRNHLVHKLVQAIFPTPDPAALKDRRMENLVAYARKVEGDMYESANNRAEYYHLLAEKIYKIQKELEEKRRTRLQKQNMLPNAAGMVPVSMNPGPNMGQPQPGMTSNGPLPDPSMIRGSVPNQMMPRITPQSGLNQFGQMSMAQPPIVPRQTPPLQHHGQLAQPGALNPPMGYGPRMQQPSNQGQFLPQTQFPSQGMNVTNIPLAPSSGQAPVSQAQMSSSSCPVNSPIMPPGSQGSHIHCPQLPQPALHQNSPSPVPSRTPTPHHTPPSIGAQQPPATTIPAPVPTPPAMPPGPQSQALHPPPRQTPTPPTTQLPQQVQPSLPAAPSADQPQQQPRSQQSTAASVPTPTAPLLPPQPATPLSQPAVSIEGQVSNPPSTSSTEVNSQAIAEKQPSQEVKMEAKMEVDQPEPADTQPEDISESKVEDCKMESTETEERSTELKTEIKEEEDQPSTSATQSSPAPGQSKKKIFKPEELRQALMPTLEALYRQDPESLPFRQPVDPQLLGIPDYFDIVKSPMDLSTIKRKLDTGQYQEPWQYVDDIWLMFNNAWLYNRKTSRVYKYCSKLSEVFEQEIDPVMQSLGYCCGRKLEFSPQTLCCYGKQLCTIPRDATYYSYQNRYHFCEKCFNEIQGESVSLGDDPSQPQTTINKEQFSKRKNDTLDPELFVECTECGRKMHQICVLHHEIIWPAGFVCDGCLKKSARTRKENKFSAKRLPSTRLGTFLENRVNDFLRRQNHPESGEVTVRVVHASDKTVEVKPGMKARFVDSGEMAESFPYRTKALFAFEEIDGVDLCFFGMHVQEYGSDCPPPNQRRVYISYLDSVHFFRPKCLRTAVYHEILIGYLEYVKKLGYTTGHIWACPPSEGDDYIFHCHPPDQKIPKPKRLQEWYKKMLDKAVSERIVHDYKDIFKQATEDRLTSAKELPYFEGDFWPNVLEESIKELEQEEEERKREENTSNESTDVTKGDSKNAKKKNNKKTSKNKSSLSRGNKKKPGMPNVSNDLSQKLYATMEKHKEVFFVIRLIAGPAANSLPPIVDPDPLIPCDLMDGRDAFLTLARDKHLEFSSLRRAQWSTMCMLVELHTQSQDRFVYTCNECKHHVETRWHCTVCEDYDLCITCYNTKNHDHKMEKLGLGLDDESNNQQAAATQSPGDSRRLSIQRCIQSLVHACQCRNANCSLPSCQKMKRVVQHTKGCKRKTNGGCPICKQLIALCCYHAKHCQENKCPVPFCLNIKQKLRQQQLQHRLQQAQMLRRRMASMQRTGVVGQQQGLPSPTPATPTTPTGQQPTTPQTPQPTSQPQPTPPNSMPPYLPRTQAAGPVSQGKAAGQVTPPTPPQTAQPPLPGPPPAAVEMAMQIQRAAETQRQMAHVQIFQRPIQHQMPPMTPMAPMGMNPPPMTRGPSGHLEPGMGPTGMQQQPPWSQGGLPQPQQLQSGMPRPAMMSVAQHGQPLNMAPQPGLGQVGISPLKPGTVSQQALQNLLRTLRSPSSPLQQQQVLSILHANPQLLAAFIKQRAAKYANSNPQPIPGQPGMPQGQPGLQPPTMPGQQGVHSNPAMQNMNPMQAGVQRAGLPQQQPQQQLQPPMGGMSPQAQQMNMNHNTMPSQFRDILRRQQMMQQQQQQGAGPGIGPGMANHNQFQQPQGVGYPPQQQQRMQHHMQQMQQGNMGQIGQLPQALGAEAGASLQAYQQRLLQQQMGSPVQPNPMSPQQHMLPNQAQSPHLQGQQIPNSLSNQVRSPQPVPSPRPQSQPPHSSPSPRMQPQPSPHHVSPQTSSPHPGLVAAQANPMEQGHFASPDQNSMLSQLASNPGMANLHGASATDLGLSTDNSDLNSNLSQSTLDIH
recorded_endpoint: pIC50
Lab note — pIC50 values are minus log10 of concentrations in M.

Problem: Reported pIC50 for Histone acetyltransferase p300 (Homo sapiens, UniProt Q09472), given `Brc1ccc(-c2ncc(OCC3CCNCC3)nc2-c2ccc(Br)c(Br)c2)cc1Br` ?
Solution: 5.00
